MEASURED_TARGET: T1, cynomolgus monkey BCMA (cynomolgus monkey, UniProt A0A2K5UD97 1-53)
T1 construct: Soluble analyte in SPR; construct not described; also called cyBCMA; Cyno BCMA
T1 sequence (A0A2K5UD97 entry or part of it): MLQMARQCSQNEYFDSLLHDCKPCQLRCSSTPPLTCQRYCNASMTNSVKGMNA
MEASUREMENT_DESCRIPTION: SPR, IgG on chip, cyBCMA analyte, 37C
pKd listing for selected binders.
pKd is defined as minus the log10 of a concentration measured in mol/L.

Bench note: what pKd did L3.PY/L3.KF/H3.AQ (antibody, V domains shown, IgG) VH: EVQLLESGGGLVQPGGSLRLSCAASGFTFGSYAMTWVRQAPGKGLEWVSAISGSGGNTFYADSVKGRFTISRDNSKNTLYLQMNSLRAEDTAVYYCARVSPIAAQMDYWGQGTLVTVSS VL: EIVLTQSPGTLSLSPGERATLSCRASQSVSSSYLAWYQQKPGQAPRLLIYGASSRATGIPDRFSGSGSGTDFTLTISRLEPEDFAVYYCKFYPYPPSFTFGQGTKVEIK show?
9.03

Bench note: what pKd did L3.PY/L1.PH/H3.AE (antibody, V domains shown, IgG) VH: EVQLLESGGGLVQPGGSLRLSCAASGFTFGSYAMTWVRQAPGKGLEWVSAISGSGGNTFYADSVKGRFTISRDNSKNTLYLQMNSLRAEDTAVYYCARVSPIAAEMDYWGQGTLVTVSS VL: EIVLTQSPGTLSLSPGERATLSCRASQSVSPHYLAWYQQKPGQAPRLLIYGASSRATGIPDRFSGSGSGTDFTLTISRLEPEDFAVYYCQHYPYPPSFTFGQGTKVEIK show?
9.11
